Exercise: state measured IC50 for each of the molecules provided.
Molecular target: UniProt Q8IL11
Sequence (Q8IL11 whole entry): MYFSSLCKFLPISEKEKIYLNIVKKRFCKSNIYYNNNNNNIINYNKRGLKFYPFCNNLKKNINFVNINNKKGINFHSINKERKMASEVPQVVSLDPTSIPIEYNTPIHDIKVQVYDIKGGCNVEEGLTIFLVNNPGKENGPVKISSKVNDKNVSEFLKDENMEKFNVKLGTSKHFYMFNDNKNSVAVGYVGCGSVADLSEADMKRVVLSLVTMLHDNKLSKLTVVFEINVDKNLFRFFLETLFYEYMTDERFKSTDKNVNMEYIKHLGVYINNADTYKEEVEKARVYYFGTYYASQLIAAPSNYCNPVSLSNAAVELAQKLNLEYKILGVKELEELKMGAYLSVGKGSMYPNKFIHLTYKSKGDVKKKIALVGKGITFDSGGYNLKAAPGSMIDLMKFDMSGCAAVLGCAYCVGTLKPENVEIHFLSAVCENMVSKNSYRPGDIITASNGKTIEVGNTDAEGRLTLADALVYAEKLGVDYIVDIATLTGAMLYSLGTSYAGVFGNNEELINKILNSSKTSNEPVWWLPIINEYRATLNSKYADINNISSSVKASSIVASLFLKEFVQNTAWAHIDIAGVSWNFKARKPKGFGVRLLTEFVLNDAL
Test: P. falciparum M17LAP inhibitors, primary screen, biochemical, fluorogenic H-Leu-NHMec substrate, 1536-well (AID 1619)
Assay type: functional
Active and inactive are the calls of the source.

Below: 5 molecules and their reported IC50.
| chemical-smiles | IC50 |
| --- | --- |
| CCCCOc1ccc(CC(=O)NO)cc1 | < 1 µM (active) |
| CSc1ccc(N/N=C(/C#N)S(=O)(=O)C(C)(C)C)cc1 | 30.6 µM (active) |
| O=C(O)c1ccc(N/N=C/c2ccc(C(F)(F)F)cc2)cc1 | 46.3 µM (active) |
| Cc1ccc(C(=O)N/N=C/c2sc(=O)n(Cc3cccc(C(=O)O)c3)c2Cl)cc1 | 17.8 µM (active) |
| O=C(CSc1nnc(NC(=O)c2c(F)cccc2F)s1)Nc1ccc(F)cc1 | 32.3 µM (active) |

Switching to the query record.
Query string: # input molecule: CCCCC(=O)NNC(=S)NC(=O)c1cccc([N+](=O)[O-])c1 ; wanted: its IC50
Result string: 49.1 µM (active)

----------
Exercise: state measured AC50 for each of the compounds provided.
Biological target: Cytochrome P450 3A4 (Homo sapiens);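 note: confirmatory qHTS run detecting inhibitors and substrates of CYP3A4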
Sequence (P08684 whole entry): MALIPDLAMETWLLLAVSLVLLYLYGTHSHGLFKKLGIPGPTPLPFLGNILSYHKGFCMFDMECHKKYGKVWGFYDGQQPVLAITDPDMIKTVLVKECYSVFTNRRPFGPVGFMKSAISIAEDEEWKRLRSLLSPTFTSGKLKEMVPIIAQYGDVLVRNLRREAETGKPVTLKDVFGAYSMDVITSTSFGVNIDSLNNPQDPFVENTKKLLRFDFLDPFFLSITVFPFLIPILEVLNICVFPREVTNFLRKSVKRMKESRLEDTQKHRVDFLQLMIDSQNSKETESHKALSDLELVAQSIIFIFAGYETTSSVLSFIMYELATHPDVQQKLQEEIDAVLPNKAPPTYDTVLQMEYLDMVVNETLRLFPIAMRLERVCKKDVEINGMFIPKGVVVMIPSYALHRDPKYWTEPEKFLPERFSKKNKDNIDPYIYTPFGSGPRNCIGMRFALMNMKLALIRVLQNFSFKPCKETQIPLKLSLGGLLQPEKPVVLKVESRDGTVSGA
Conditions: Potency

Below: 3 compounds and their reported AC50.
| compound | AC50 |
| --- | --- |
| CCCn1c(C)nc2c(NC3CCCCC3)nc(C)nc21 | 12.6 µM (inconclusive) |
| O=S1OCC2C(CO1)C1(Cl)C(Cl)=C(Cl)C2(Cl)C1(Cl)Cl (centres undefined) [ENDOSULFAN] | 2.51 µM (inconclusive) |
| COC(=O)[C@@H]1C[C@@H]2CC[C@@H](O)C[C@@H]2N1Cc1ccc(N2CCN(C)CC2)cc1 | 10 µM (inconclusive) |

Switching to the query record.
Query string: # input compound: c1ccc(C2[C@H]3CN(CC4CCCCC4)[C@H](c4ccccc4)C34CC2(c2ccccc2)C4)cc1 (some centres undefined) ; wanted: its AC50
Result string: 5.01 µM (inconclusive)

----------
Exercise: state measured EC50 for each of the compounds provided.
Assay: inhibitors of SNCA 5'UTR-driven reporter translation, confirmation, H4 neuroglioma cells, luminescence (AID 1988)
Type: functional, cell-based
The source made the active and inactive calls.

Below: 3 compounds and their reported EC50.
| chemical-smiles | EC50 |
| --- | --- |
| Fc1ccc(-c2ccnc3nc(-n4cccc4)nn23)cc1 | > 120 µM (not active) |
| O=Nc1c(O)c2ccccc2c2ccccc12 | > 120 µM (not active) |
| Cc1ccc2nc3sc(C(=O)N4CCOCC4)c(N)c3cc2c1 | 2.37 µM (active) |

Hi team, please reply with EC50 for each item in this list.
1. Cc1ccc(-c2nc3n(n2)Cc2ccccc2-3)cc1
2. CCc1ccc(NC(=O)C2CCN(S(=O)(=O)c3ccc4c(c3)NC(=O)CO4)CC2)cc1

Result string:
1. 6.59 µM (active)
2. > 120 µM (not active)

----------
Biological target: Nonstructural protein 1 (Influenza A virus, UniProt Q194T2)
Sequence (Q194T2 whole entry): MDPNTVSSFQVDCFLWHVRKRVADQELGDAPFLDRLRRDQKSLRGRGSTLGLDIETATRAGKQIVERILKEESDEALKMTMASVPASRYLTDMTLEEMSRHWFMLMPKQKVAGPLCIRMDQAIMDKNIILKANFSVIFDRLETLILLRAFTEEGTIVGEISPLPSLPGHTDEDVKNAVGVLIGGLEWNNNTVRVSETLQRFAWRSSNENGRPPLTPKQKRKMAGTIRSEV
Assay type: functional, Influenza A virus (A/California/07/2009(H1N1))
Calls of active or inactive are those of the source.
readout-kind: IC50

Below: 5 molecules and their reported IC50.
| molecule | experimental-system | readout-kind | result |
| --- | --- | --- | --- |
| CC(=O)NC(c1cccc([N+](=O)[O-])c1)c1ccc2cccnc2c1O (stereo unspecified) | Nonstructural protein 1 (Influenza A virus, UniProt Q194T2) | IC50 | 9.19 µM (active) |
| CSC1=N/C(=C\C=C\c2cccs2)C(=O)S1 | Nonstructural protein 1 (Influenza A virus, UniProt Q194T2) | IC50 | 69.4 µM (active) |
| O=C(CNCc1ccccn1)N1CCc2ccccc2C1 | Nonstructural protein 1 (Influenza A virus, UniProt Q194T2) | IC50 | 3.54 µM (active) |
| CC(=O)NC(c1ccccc1)c1cc([N+](=O)[O-])c2cccnc2c1O (stereo unspecified) | Nonstructural protein 1 (Influenza A virus, UniProt Q194T2) | IC50 | 5.52 µM (active) |
| COC(=O)c1ccccc1NC1=C/C(=N\S(=O)(=O)c2ccc(C(=O)O)cc2)c2ccccc2C1=O | Nonstructural protein 1 (Influenza A virus, UniProt Q194T2) | IC50 | 31.8 µM (active) |

Switching to the query record.
Query string: # input molecule: CCOC(=O)C1=C(C)n2c(s/c(=C/c3cccc([N+](=O)[O-])c3)c2=O)=NC1c1ccc(O)c(OC)c1 (stereo unspecified) ; wanted: its IC50
Result string: > 100 µM (active)

Source listed as ChEMBL document CHEMBL1201862.
